- Measurement Target: p38γ (Homo sapiens, UniProt P53778)
- Sequence (P53778 whole entry): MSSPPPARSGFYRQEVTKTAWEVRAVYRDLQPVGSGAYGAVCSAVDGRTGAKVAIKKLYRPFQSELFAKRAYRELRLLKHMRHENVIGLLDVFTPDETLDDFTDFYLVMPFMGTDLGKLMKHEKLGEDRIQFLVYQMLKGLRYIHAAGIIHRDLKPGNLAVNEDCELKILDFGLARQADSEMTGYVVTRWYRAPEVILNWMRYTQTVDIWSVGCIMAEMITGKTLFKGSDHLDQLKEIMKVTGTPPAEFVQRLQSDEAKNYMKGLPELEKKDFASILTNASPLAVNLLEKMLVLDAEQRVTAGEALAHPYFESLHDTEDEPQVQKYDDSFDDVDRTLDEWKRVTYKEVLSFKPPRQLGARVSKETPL
Endpoint: Kd (µM)

- Compound: "Nc1ncnc2c1ncn2[C@@H]1O[C@H](COP(=O)(O)OP(=O)(O)OP(=O)(O)O)[C@@H](O)[C@H]1O [ATP]"
  Observed: 770

All values here come from paper PMC6932632.
